Property: EC50; scope: individual binders
# target.desc: hMPV A2 F (human metapneumovirus)
# assay.method.text: ELISA on coated recombinant protein, OD 405 nm
Supply the numeric figure in µg/mL, leaving out any unit text.

Here's what some known entries look like.
{"binder": "MPV482 (antibody, V domains shown) VH: EVQLVQSGGGVVQPGRSLRLSCAASGFTFSSFAMHWVRQAPGKGLEWVALISDDGNNKYHADSVKGRFTISRDSSKNTLYLQMNSLRGEDTAVYYCARDGSVVGAAAHCDHWGQGTLVTVSS VL: SYELTQPPSVSVSPGQTARITCSGDALPNQCAYWYQQKPGLAPVLLIYKDKERPSGIPERFSGSISGTTVTLTISGVQAEDEADYYCQSSDSSSTVVFGGGTKLTVL", "measured.property": "EC50", "unit.name": "µg/mL", "readout.value": 0.057}
{"binder": "MPV414 (antibody, V domains shown) VH: QVQLVQSGPEVKKPGSSVMVSCKTSGGNFNNFAISWVRQAPGQGLEWMGGIVPIFGTANYAQKSQDRVTITADPSSSTAYLQLSSLTSDDTAIYYCARDLGRSSNYYYYSVFESWGQGTLVTVSS VL: DIVMTQSPATLSLSPGERATLSCRASQSVGDKLAWYQQKPGQAPRLLIYGASTRATDIPARFSGSGSGTEFTLTVSSLQPEDFAVYYCQQYENWPPITFGQGTRLEIK", "measured.property": "EC50", "unit.name": "µg/mL", "readout.value": 0.034}

// below: EC50 requested for another binder
## Task State the recorded EC50 for this entry: MPV485 (antibody, V domains shown) V domain 1: EVQLQEPGPGLVKPSETLSLTCTVSGGSISSTNSFWGWVRQPPGKGLEWIGSIYYSGTTYYNSSLKSRVTISVDTSKNQFSLRLSSVTAADTAVYYCARQGLTSSWYDGSGLDVWG V domain 2: SYELTQPPSVSVSPGQTASITCSGDKLGNKYACWYQQRPGQSPVLVIYQDTKRPSGIPERFSGSNSGNTATLTISGTQAMDEADYYCQAWDSNTVVFGGGTKLTVL
## Result 0.086
